experiment: Half life in Sprague-Dawley rat at 1 mg/kg, iv administered as bolus dose by HPLC-MS/MS analysis; format: ADME, organism-based; details: in vivo
READOUT: half-life

CC(C)c1cc(-c2ccc3c(c2)[C@H](N)CO3)cc([C@H](O)Cn2ccc3cccc(C(=O)O)c32)c1	6.4 h

---

IC50 data for Coagulation factor VII (Homo sapiens, UniProt P08709) follow.
READOUT: IC50

CC(C)c1cc(-c2ccc3c(c2)[C@H](N)CO3)cc([C@H](O)Cn2ccc3cccc(C(=O)O)c32)c1	3.65 µM
CC(C)c1cc(-c2ccc3c(c2)[C@H](N)CO3)cc(C(O)CN2CCc3cccc(C(=O)O)c32)c1 (mixture of isomers)	8.75 µM
Cc1cccc(C(=O)O)c1OCCc1cc(-c2ccc3c(c2)[C@H](N)CO3)cc(C(C)C)c1	45.1 µM
CC(C)c1cc(COc2ccccc2CC(=O)O)cc(-c2ccc3c(c2)[C@H](N)CO3)c1	5.1 µM
CC(C)c1cc(CCOc2c(Cl)cccc2C(=O)O)cc(-c2ccc3c(c2)[C@H](N)CO3)c1	20.5 µM
